The measured values listed here are drawn from patent US8198438B2.

Form: system (GSK3-β (Homo sapiens)), quantity (log10 of IC50), values below.
// units: nM (pre-log); metric: IC50; scale: log10

CC(C)(C)OC(=O)N1CCC(C(=O)N2CCC[C@@H]2c2nc(Nc3cc(C4CC4)[nH]n3)c3cccn3n2)CC1 : 3.65
O=C(c1nccs1)N1CCC[C@@H]1c1nc(Nc2cc(C3CC3)[nH]n2)c2cccn2n1 : 1.04
O=C(C1CCNCC1)N1CCC[C@H]1c1nc(Nc2cc(C3CC3)[nH]n2)c2cccn2n1 : 1.96

Q) What value of measured log10 of IC50 is listed for "O=C(c1nccs1)N1CCC[C@H]1c1nc(Nc2cc(C3CC3)[nH]n2)c2cccn2n1" ?
A) 1.38

Q) Same question for "O=C(c1cc[nH]n1)N1CCC[C@H]1c1nc(Nc2cc(C3CC3)[nH]n2)c2cccn2n1" please.
A) 1.71
